The reported measurements were obtained from ChEMBL document CHEMBL5052856.

Task for the reader: assign each of the following compounds its reported IC50.
tested target: Apolipoprotein L1 (Homo sapiens)
protocol notes: Inhibition of APOL1 G1 variant in human HEK293-T-REx cells measured by Thallium assay
Express the result in nM but write the number alone.

So what's the measured IC50 for this one? O=C(NCC(F)F)N1CC(c2c(-c3ccc(F)cc3)[nH]c3c(F)cc(F)cc23)C1
0.25

Please report the recorded IC50 for O=C(NCCO)O[C@H]1C[C@H](c2c(-c3ccc(F)cc3)[nH]c3c(F)cc(F)cc32)C1 .
0.25

* * *

Field: IC50. Provide a value for each of the compounds that follow.
tested target: Apolipoprotein L1 (Homo sapiens)
protocol notes: Inhibition of APOL1 G1 variant in human HEK293-T-REx cells measured by Thallium assay

Item under review: CC(O)CN(CCO)C(=O)[C@H]1C[C@H](c2c(-c3ccc(F)cc3)[nH]c3c(F)cc(F)cc32)C1 (stereo partly drawn) . Reported IC50?
0.25 nM

Need IC50, item CC(O)(CO)CNC(=O)C1CC(Cc2c(-c3ccc(F)cc3)[nH]c3c(F)cc(F)cc23)C1 (stereo not drawn)
> 1000 nM

# query: IC50 of entry O=C1NC[C@@H](O)[C@@H]1NC(=O)[C@H]1C[C@@H](c2c(-c3ccc(F)cc3)[nH]c3c(F)cc(F)cc32)C1
> 1000 nM

Need IC50, item C[C@H](O)CNC(=O)C1CC(Cc2c(-c3ccc(F)cc3)[nH]c3c(F)cc(F)cc23)C1 (stereo partly drawn)
> 1000 nM

Value lookup for IC50; key = O=C(NC[C@H]1C[C@H](c2c(-c3ccc(F)cc3)[nH]c3c(F)cc(F)cc32)C1)NC1(CO)CCOC1 (stereo partly drawn)
> 1000 nM

GET /values?readout=IC50&item= CN(C(=O)[C@H]1C[C@H](c2c(-c3ccc(F)cc3)[nH]c3c(F)cc(F)cc32)C1)C1(CO)CC1
0.25 nM

Could you share which IC50 value was measured for O=C(Nc1ccc[nH]c1=O)C1CC(Cc2c(-c3ccc(F)cc3)[nH]c3c(F)cc(F)cc23)C1 (stereo not drawn) ?
> 1000 nM

Which IC50 value is on record for O=C(NC1CCOC1)[C@H]1C[C@H](c2c(-c3ccc(F)cc3)[nH]c3c(F)cc(F)cc32)C1 (stereo partly drawn) ?
> 1000 nM
